Tested on: UACC-62
Test Summary: NCI tumour cell line growth inhibition, 48 h
Calls of active or inactive are those of the source. No stated cut-off is given here; in the data, active = GI50 up to about 1.1 µM and inactive = higher.
Labels: active, inactive

INSERT INTO results (molecule, qualitative_label) VALUES
  ('O=C1C(Cl)N(c2cccc([N+](=O)[O-])c2)C1c1c[nH]c2ccccc12 (stereo unspecified)', 'inactive'),
  ('Cc1cccc(C)c1NC(=O)CCC(=O)NC(N)=S', 'inactive'),
  ('CC1=C(Br)C(=O)c2c(O)ccc(O)c2C1=O', 'active'),
  ('Cc1ccc(Nc2nc(NNC(=O)Cc3ccccc3)nc(NNC(=O)c3ccncc3)n2)cc1', 'inactive'),
  ('O=C1C(C(O)(C(F)(F)Cl)C(F)(F)Cl)CCCC1C(O)(C(F)(F)Cl)C(F)(F)Cl (stereo unspecified)', 'inactive'),
  ('O=c1c2cc(Br)ccc2nc(CCl)n1-c1ccc(O)c([N+](=O)[O-])c1', 'inactive'),
  ('O=C(O)CCc1cccc2c1oc1c(CCC(=O)O)cccc12', 'inactive'),
  ('CCOC(=O)/C(C(=O)Nc1ccc(Cl)cc1)=C(/N)N1CCOCC1', 'inactive'),
  ('O=c1[nH]cc(COCC(F)(F)C(F)(F)C(F)(F)C(F)F)c(=O)[nH]1', 'inactive'),
  ('CC1(C(=O)O)CCOc2ccccc21 (stereo unspecified)', 'inactive'),
  ('COC(=O)NN1C(C)=C(C(=O)OC)C2(C#N)C(C(=O)OC)=C(C)N(NC(=O)OC)C12N (stereo unspecified)', 'inactive'),
  ('CCC(COC(=O)CC[C@@H](NC(=O)C(C)NC(=O)C(C)OC1C(O)C(CO)OC(OCc2ccccc2)C1NC(C)=O)C(N)=O)NC1c2ccccc2Nc2cccc([N+](=O)[O-])c21 (stereo partly specified)', 'inactive'),
  ('Nc1nc(N)c2ncn(Cc3ccccc3CO)c2n1', 'inactive'),
  ('Cl[Si]1(Cl)Oc2ccccc2O[Si](Cl)(Cl)Oc2ccccc2O1', 'inactive'),
  ('O=C(O)CCN(CCC(=O)O)c1ccc(/C=C2\SC(=S)NC2=O)cc1', 'inactive'),
  ('Clc1ccc(C(c2ccc(Cl)cc2)N2CCNCC2)cc1', 'inactive'),
  ('O=C(N/N=C\c1ccc([N+](=O)[O-])s1)c1ccncc1', 'inactive'),
  ('CS(=O)(=O)CCC(N)P(=O)(O)O (stereo unspecified)', 'inactive'),
  ('CSc1nc(SC)c2c(C)cn(COCCOC(=O)c3ccccc3)c2n1', 'inactive'),
  ('CC1OC(O)CC(N(C)C)C1O.CC1OC(O)CCC1O.CCC1CC(O)c2c(O)c3c(c(O)c2C1O)C(=O)c1cccc(O)c1C3=O (stereo unspecified)', 'active'),
  ('Cc1ccc(/N=N/c2ccc(O)c(CN(C)C)c2)cc1C', 'inactive');
